System: ATP;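 note: ATP exposure 15 min at 22 °C before imaging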
ASSAY_COMMENT: switch fluorescence ratio, 500 uM ATP over buffer (Cy3 cluster intensity, sum of 5 cycles each) (fold (ratio)); higher = stronger signal-on switching upon ATP binding; sequences stand for … in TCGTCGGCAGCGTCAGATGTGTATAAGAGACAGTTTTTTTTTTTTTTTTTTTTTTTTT…TC
CONDITION_DESCRIPTION: aptamer strand: ATP DNA aptamer (quencher-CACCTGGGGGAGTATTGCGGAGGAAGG + anchor), 100 nM annealed; ATP concentration: 500 uM
Listing: switch fluorescence ratio of selected sequences
Write the number on its own, no unit after it.

Form: sequence = "TTCGGCGGTG" ; switch fluorescence ratio = 0.98

Noted for "CGTTCGCCGG" : its switch fluorescence ratio reads 0.998

// recorded switch fluorescence ratio for "TTCGGGACGC" : 1.03

---

System: ATP;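 note: ATP exposure 15 min at 22 °C before imaging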
ASSAY_COMMENT: switch fluorescence ratio, 500 uM ATP over buffer (Cy3 cluster intensity, sum of 5 cycles each) (fold (ratio)); higher = stronger signal-on switching upon ATP binding; sequences stand for … in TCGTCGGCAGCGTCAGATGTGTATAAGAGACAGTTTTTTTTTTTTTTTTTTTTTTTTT…TC
CONDITION_DESCRIPTION: aptamer strand: ATP DNA aptamer (quencher-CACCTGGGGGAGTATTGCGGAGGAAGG + anchor), 100 nM annealed; ATP concentration: 500 uM
Label met when switch fluorescence ratio >= 1; otherwise not met.

Below are worked cases with known answers.
- RESIDUE_SEQUENCE: "ATTACGTACT"
  ANSWER_LABEL: "met"
- RESIDUE_SEQUENCE: "TAATGACTCA"
  ANSWER_LABEL: "met"
- RESIDUE_SEQUENCE: "ACCGGATGG"
  ANSWER_LABEL: "met"
- RESIDUE_SEQUENCE: "GAAGTATGGG"
  ANSWER_LABEL: "not met"
- RESIDUE_SEQUENCE: "GAGGGTAGGT"
  ANSWER_LABEL: "met"

Now consider the entry below.
**Query** Please tell me: is the sequence "GCTACACAGG" at or over 1 in terms of switch fluorescence ratio?
**Result** met

---

Test system: ATP;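 note: ATP exposure 15 min at 22 °C before imaging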
ASSAY_COMMENT: switch fluorescence ratio, 500 uM ATP over buffer (Cy3 cluster intensity, sum of 5 cycles each) (fold (ratio)); higher = stronger signal-on switching upon ATP binding; sequences stand for … in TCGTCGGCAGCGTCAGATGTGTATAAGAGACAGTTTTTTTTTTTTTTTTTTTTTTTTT…TC
CONDITION_DESCRIPTION: aptamer strand: ATP DNA aptamer (quencher-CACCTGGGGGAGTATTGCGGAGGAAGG + anchor), 100 nM annealed; ATP concentration: 500 uM
Each record here notes measured switch fluorescence ratio.
When you answer, write just the number.

Look over these answered cases.
- RESIDUE_SEQUENCE: "CGGATTCGAT"
  ASSAY_TARGET: "ATP"
  ENDPOINT: "switch fluorescence ratio"
  ENDPOINT_VALUE: 1.01
- RESIDUE_SEQUENCE: "GACTAGGAAG"
  ASSAY_TARGET: "ATP"
  ENDPOINT: "switch fluorescence ratio"
  ENDPOINT_VALUE: 0.994
- RESIDUE_SEQUENCE: "ACAGGTTGGA"
  ASSAY_TARGET: "ATP"
  ENDPOINT: "switch fluorescence ratio"
  ENDPOINT_VALUE: 1.03
- RESIDUE_SEQUENCE: "GGGGTGGCAA"
  ASSAY_TARGET: "ATP"
  ENDPOINT: "switch fluorescence ratio"
  ENDPOINT_VALUE: 1.01
- RESIDUE_SEQUENCE: "TGAGATAAGG"
  ASSAY_TARGET: "ATP"
  ENDPOINT: "switch fluorescence ratio"
  ENDPOINT_VALUE: 0.987

switch fluorescence ratio reported for this sequence "TGTTGGGTTT" : 0.998

Briefly, switch fluorescence ratio measured for "ACCGTCAGTG" : 1

"TTTATTTTTC" yielded switch fluorescence ratio of 1.04

"ACGGTCTGGA" has a reported switch fluorescence ratio of 1

Looking up "TTTTCAAAAT" , I see its switch fluorescence ratio listed as 1.08

---

Listing: switch fluorescence ratio of selected sequences
Test system: ATP;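 note: ATP exposure 15 min at 22 °C before imaging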
ASSAY_COMMENT: switch fluorescence ratio, 500 uM ATP over buffer (Cy3 cluster intensity, sum of 5 cycles each) (fold (ratio)); higher = stronger signal-on switching upon ATP binding; sequences stand for … in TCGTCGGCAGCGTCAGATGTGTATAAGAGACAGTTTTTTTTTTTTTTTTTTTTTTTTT…TC
CONDITION_DESCRIPTION: aptamer strand: ATP DNA aptamer (quencher-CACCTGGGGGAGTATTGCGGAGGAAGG + anchor), 100 nM annealed; ATP concentration: 500 uM
Just the number, please.

A selection of reference data follows.
- RESIDUE_SEQUENCE: "TTTAGGCAGG"
  ENDPOINT: "switch fluorescence ratio"
  ENDPOINT_VALUE: 0.988
- RESIDUE_SEQUENCE: "AAGCCTTAAA"
  ENDPOINT: "switch fluorescence ratio"
  ENDPOINT_VALUE: 1.06
- RESIDUE_SEQUENCE: "ATTAGGGGGC"
  ENDPOINT: "switch fluorescence ratio"
  ENDPOINT_VALUE: 1.04
- RESIDUE_SEQUENCE: "TTTGAGAATT"
  ENDPOINT: "switch fluorescence ratio"
  ENDPOINT_VALUE: 1.01
- RESIDUE_SEQUENCE: "TAAGTGGAAG"
  ENDPOINT: "switch fluorescence ratio"
  ENDPOINT_VALUE: 1.01

Lab note: measured switch fluorescence ratio of "ATGTTTAAGC" was 1.05

For reference, reported switch fluorescence ratio for "ATGACGCGGG" stands at 0.959

---

System: ATP;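 note: ATP exposure 15 min at 22 °C before imaging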
ASSAY_COMMENT: switch fluorescence ratio, 500 uM ATP over buffer (Cy3 cluster intensity, sum of 5 cycles each) (fold (ratio)); higher = stronger signal-on switching upon ATP binding; sequences stand for … in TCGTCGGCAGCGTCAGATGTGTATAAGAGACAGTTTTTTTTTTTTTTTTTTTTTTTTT…TC
CONDITION_DESCRIPTION: aptamer strand: ATP DNA aptamer (quencher-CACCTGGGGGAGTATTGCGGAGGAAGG + anchor), 100 nM annealed; ATP concentration: 500 uM
ENDPOINT: switch fluorescence ratio

// solved cases for switch fluorescence ratio follow
- RESIDUE_SEQUENCE: "ATGCAACGTC"
  ASSAY_TARGET: "ATP"
  switch fluorescence ratio: 0.989
- RESIDUE_SEQUENCE: "ATTAGTGGGT"
  ASSAY_TARGET: "ATP"
  switch fluorescence ratio: 0.983
- RESIDUE_SEQUENCE: "GGGGAAGACT"
  ASSAY_TARGET: "ATP"
  switch fluorescence ratio: 0.989

Please find the next sequence below.
// returns switch fluorescence ratio for "TTGTGGGGTG" with ATP; value = 1.01

---

Test system: ATP;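 note: ATP exposure 15 min at 22 °C before imaging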
ASSAY_COMMENT: switch fluorescence ratio, 500 uM ATP over buffer (Cy3 cluster intensity, sum of 5 cycles each) (fold (ratio)); higher = stronger signal-on switching upon ATP binding; sequences stand for … in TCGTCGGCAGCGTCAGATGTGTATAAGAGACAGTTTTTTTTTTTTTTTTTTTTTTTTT…TC
CONDITION_DESCRIPTION: aptamer strand: ATP DNA aptamer (quencher-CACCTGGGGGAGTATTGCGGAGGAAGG + anchor), 100 nM annealed; ATP concentration: 500 uM
Hi, to clarify the labels: Y covers switch fluorescence ratio from 1 upward, N covers anything below 1.

// below: answered sequences
- RESIDUE_SEQUENCE: "CCGAGAGAGC"
  ASSAY_TARGET: "ATP"
  ANSWER_LABEL: "Y"
- RESIDUE_SEQUENCE: "CATAATCCGA"
  ASSAY_TARGET: "ATP"
  ANSWER_LABEL: "Y"

Turning now to a further record.
**Query** Is switch fluorescence ratio at least 1? Consider "AGGGGAGAGA"
**Result** Y

---

System: ATP;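 note: ATP exposure 15 min at 22 °C before imaging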
ASSAY_COMMENT: switch fluorescence ratio, 500 uM ATP over buffer (Cy3 cluster intensity, sum of 5 cycles each) (fold (ratio)); higher = stronger signal-on switching upon ATP binding; sequences stand for … in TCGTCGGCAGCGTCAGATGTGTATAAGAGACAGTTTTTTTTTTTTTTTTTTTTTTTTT…TC
CONDITION_DESCRIPTION: aptamer strand: ATP DNA aptamer (quencher-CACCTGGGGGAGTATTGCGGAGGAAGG + anchor), 100 nM annealed; ATP concentration: 500 uM
ENDPOINT: switch fluorescence ratio
Keep the answer to the number alone.

- RESIDUE_SEQUENCE: "CTCTCTAGCA"
  switch fluorescence ratio: 1.4
- RESIDUE_SEQUENCE: "ATTACTATGG"
  switch fluorescence ratio: 1.02
- RESIDUE_SEQUENCE: "ACTTATTAAT"
  switch fluorescence ratio: 1.03

Field switch fluorescence ratio (entry "TTTTCTTCTC" ) reads 1.03

Where do these numbers come from? They come from the supplement of paper PMC10126150.
